The measured values listed here are drawn from PubChem BioAssay (EPA / NIEHS).

# test.name: BSK_SAg_Proliferation: Cell Proliferation Assessment in the BioMAP Diversity Plus: SAg Assay (AID 2283095);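 also: relative cell number as total protein by SRB absorbance in sub-confluent culture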
# setup.conditions: primary human HUVEC with PBMC
Active and inactive are the calls of the source. The calls were made as follows: active = hit-call score of the fitted dose curve at least 0.9, where 1 is the maximum; inactive = score below 0.9.
# valid calls are 1 (yes) = active, 0 (no) = inactive; nothing else

Example entries begin here.
COc1ccc2c(c1)c(CC(=O)O)c(C)n2C(=O)c1ccc(Cl)cc1
0 (no)
C=CCc1ccc(O)c(OC)c1
0 (no)
COCCOC[C@H](CC1(C(=O)NC2CCC(C(=O)O)CC2)CCCC1)C(=O)Oc1ccc2c(c1)CCC2 (stereo partly specified)
0 (no)
COc1cc(C=O)ccc1O
0 (no)
Cc1ccc(C)c(C)c1
0 (no)

Kindly review the next compound as well.
Answer briefly: the call reported for CC1=C(/C=C/C(C)=C/C=C/C(C)=C/CO)C(C)(C)CCC1 in this assay.
1 (yes)

----------
# Read-out: CD40, CD40 (gene 958)
# test.name: BSK_LPS_CD40: BioMAP Diversity Plus: LPS Assay for CD40 Biomarker Activity (AID 2283076)
# setup.conditions: primary human HUVEC with PBMC; actives raise or lower the signal
Activity calls are given as the source filed them. The calls were made as follows: active = hit-call score of the fitted dose curve at least 0.9, where 1 is the maximum; inactive = score below 0.9.
# valid calls are active, inactive; nothing else

Example entries begin here.
O=C(O)Cc1ccccc1Nc1c(Cl)cccc1Cl
inactive
FC(F)(F)C(F)(F)C(F)(F)C(F)(F)C(F)(F)C(F)(F)CCI
inactive

Answer briefly: the call reported for C[Si]1(C)O[Si](C)(C)O[Si](C)(C)O[Si](C)(C)O1 in this assay.
inactive

Answer briefly: the call reported for CN1CCN(Cc2cc(-c3ccc4[nH]c(=O)oc4c3)co2)[C@@H](c2ccc(F)cc2)C1 in this assay.
inactive

Answer briefly: the call reported for CC1(C)CC(N=C=O)CC(C)(CN=C=O)C1 (stereo not drawn) in this assay.
inactive

Answer briefly: the call reported for O=C(OCCCCCOC(=O)c1ccccc1)c1ccccc1 in this assay.
inactive

Answer briefly: the call reported for Nc1ccc(S(=O)(=O)c2ccc(N)cc2)cc1 in this assay.
inactive

Answer briefly: the call reported for Cc1ccc(C)c(C)c1 in this assay.
inactive

Answer briefly: the call reported for CC(=O)Oc1ccccc1C(=O)O in this assay.
inactive

Answer briefly: the call reported for C[C@]12C=CC(=O)C=C1CC[C@@H]1[C@@H]2C(=O)C[C@@]2(C)[C@H]1CC[C@]2(O)C(=O)CO in this assay.
inactive

Answer briefly: the call reported for COc1cc(C=O)ccc1O in this assay.
inactive

----------
# Read-out: Tissue Factor, F3 (gene 2152)
# test.name: BSK_LPS_TissueFactor: BioMAP Diversity Plus: LPS Assay for Tissue Factor Biomarker Activity (AID 2283084)
# setup.conditions: primary human HUVEC with PBMC; actives raise or lower the signal
Active and inactive are the calls of the source. How the source made its calls: active means hit-call score of the fitted dose curve at least 0.9, where 1 is the maximum; inactive means score below 0.9.
endpoint: outcome

CCCCN(CCCC)CCCC
inactive
Clc1cc(Cl)c(Cl)cc1Cl
inactive
OC[C@@H](O)[C@@H](O)[C@H](O)[C@H](O)CO
inactive

----------
# Read-out: Glutathione S-Transferase (GSTA2), GSTA2 (gene 2939)
# test.name: LTEA_HepaRG_GSTA2: Life Technologies and Expression Analysis (LTEA) Assay for Glutathione S-Transferase (GSTA2) using HepaRG (AID 2283497)
# setup.conditions: mRNA level, 48 h; actives raise or lower the signal
The source made the active and inactive calls. How the source made its calls: active means hit-call score of the fitted dose curve at least 0.9, where 1 is the maximum; inactive means score below 0.9.
# valid calls are active, inactive; nothing else

Example entries begin here.
CN1CCN(Cc2cc(-c3ccc4[nH]c(=O)oc4c3)co2)[C@@H](c2ccc(F)cc2)C1
active
COc1ccc2c(c1)c(CC(=O)O)c(C)n2C(=O)c1ccc(Cl)cc1
inactive
NC(=O)Cn1c(=O)cc(CCN2CCN(c3nccc4sccc34)CC2)c2ccc(F)cc21
active
CNCc1cc(F)ccc1Oc1ccc(Cl)c(Cl)c1
active
Cc1ccc2ncccc2c1
inactive

Answer briefly: the call reported for FC(F)(F)C(F)(F)C(F)(F)C(F)(F)C(F)(F)C(F)(F)CCI in this assay.
inactive

Answer briefly: the call reported for CCCCCCOCCO in this assay.
inactive
